# MEASUREMENT_TARGET: EGFR L858R/C797S (Homo sapiens, UniProt P00533, C797S/L858R)
# Sequence (P00533 25-1210 C797S/L858R): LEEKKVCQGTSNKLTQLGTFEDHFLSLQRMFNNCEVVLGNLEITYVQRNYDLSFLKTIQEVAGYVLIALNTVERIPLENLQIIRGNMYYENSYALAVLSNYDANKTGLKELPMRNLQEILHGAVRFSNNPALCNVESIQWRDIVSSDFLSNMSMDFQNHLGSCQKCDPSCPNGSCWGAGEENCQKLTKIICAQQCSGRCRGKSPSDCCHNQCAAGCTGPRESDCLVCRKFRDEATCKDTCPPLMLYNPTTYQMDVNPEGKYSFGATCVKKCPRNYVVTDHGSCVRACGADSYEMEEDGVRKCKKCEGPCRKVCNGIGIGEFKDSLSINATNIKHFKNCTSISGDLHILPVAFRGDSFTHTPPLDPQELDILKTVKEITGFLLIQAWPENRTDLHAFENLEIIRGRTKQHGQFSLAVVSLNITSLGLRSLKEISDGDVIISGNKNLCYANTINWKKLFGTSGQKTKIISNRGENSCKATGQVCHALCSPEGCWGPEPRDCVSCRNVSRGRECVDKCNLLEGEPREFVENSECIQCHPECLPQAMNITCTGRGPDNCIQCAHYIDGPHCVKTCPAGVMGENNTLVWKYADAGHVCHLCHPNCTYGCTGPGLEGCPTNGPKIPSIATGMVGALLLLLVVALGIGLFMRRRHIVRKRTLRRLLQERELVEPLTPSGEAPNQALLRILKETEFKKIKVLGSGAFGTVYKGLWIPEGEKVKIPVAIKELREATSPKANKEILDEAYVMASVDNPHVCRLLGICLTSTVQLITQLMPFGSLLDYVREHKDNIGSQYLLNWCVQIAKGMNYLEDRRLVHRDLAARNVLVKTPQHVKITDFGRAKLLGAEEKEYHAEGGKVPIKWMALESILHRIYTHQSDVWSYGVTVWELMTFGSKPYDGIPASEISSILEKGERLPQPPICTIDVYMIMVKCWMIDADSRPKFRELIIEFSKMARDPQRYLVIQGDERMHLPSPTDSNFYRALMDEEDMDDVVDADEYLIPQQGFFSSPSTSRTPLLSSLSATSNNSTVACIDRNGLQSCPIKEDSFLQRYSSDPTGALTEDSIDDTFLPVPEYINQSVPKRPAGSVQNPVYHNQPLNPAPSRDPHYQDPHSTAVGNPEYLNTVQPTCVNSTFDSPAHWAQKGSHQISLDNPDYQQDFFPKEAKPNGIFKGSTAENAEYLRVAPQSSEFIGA
# RUN_DESCRIPTION: Biochemical EGFR kinase assay (Lance Ultra TR-FRET), double mutant L858R/C797S
# CONDITION_PARAMETERS: read-out: IC50 L858R/C797S (nM) 100 μM ATP; 100 μM ATP

COMPOUND: CN[C@H]1CC[C@@H](Nc2cc(Nc3ccnc(-c4cnn(S(=O)(=O)C5CC5)c4)n3)ncc2-c2ccn(C(C)C)n2)CC1 [Example 86]
SCALE_UNIT: nM
IC50: 14.8

COMPOUND: O=S(=O)(C1CC1)n1cc(-c2nccc(Nc3cc(N[C@H]4CC[C@](O)(C(F)(F)F)CC4)c(-c4ccn(C(F)F)n4)cn3)n2)cn1 [Example 11]
SCALE_UNIT: nM
IC50: 267

COMPOUND: CC(C)n1ccc(-c2cnc(Nc3ccnc(-c4cnn(S(=O)(=O)C5CC5)c4)n3)cc2N[C@H]2CC[C@@H](O)CC2)n1 [Example 82]
SCALE_UNIT: nM
IC50: 3.9
